# MEASUREMENT_TARGET: Disintegrin and metalloproteinase domain-containing protein 10 (Homo sapiens, UniProt O14672)
# Sequence (O14672 whole entry): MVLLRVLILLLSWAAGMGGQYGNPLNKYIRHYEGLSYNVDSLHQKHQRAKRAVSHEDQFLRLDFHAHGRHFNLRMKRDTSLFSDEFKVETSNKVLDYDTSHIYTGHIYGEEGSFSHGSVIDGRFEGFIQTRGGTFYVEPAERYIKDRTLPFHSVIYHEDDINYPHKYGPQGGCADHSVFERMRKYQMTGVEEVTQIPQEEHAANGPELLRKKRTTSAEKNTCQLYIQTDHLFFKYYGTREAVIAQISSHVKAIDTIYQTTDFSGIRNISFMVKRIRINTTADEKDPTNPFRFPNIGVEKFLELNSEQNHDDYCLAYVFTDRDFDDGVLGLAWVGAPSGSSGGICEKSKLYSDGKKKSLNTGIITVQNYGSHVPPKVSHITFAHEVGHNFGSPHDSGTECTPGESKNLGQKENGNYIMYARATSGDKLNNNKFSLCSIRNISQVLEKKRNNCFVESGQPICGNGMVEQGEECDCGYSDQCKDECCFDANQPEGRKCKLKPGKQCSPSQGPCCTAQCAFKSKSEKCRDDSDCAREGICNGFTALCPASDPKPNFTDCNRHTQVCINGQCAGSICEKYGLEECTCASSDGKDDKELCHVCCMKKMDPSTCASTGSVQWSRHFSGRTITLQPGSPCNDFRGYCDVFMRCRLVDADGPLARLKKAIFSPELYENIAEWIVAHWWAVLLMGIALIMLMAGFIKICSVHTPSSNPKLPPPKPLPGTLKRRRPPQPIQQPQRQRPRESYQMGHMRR
QUANTITY_NAME: Ki

Prompt: Recorded Ki of Cc1cc(COc2ccc(C(=O)N[C@@]3(CC(=O)NO)C[C@@H](C)N[C@@H](C)C3)cc2)c2ccccc2n1 , please.
Response: > 3 µM

###

# MEASUREMENT_TARGET: Neprilysin (Homo sapiens, UniProt P08473)
# Sequence (P08473 whole entry): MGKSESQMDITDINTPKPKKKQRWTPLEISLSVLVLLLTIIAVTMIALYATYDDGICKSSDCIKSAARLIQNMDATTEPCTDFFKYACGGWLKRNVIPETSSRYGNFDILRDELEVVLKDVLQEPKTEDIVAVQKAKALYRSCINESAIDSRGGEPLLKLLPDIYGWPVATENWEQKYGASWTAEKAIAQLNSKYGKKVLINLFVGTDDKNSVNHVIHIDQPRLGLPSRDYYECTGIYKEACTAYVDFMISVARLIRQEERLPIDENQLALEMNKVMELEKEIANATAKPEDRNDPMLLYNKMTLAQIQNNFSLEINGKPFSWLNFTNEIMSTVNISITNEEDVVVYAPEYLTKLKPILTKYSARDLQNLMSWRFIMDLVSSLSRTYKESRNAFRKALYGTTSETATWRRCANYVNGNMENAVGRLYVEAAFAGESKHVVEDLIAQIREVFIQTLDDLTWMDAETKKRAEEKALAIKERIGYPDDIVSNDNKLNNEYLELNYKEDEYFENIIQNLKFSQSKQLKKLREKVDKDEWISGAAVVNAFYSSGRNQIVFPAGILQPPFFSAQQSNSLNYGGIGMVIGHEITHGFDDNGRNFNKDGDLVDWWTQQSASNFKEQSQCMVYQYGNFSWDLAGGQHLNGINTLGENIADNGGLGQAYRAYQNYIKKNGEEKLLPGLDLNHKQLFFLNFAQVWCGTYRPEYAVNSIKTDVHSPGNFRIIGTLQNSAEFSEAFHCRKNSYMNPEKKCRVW
pKi: −log10 of the molar value.
QUANTITY_NAME: pKi

Prompt: Recorded pKi of NC(=O)[C@H](CCC(=O)O)NC(=O)[C@H](CCC(=O)O)NC(=O)[C@H](Cc1cc(-c2ccc(-c3cccc(Cl)c3)cc2)no1)CP(=O)(O)c1ccc(Br)cc1 , please.
Response: < 4.00

###

# MEASUREMENT_TARGET: Matrix metalloproteinase-14 (Homo sapiens)
# ASSAY_COMMENT: Inhibition of MMP14
QUANTITY_NAME: pIC50
Conceptually, pIC50 converts a concentration in mol/L into minus its log10.

Prompt: Recorded pIC50 of CC#CCOc1ccc(S(=O)(=O)N[C@@H](C(=O)NO)[C@H](C)O)cc1 , please.
Response: 6.24

###

Entries with their measured pIC50, system UniProt:P45452:
Conceptually, pIC50 converts a concentration in mol/L into minus its log10.

Prompt: Could you share what pIC50 was measured for CC#CCOc1ccc(S(=O)(=O)N[C@@H](C(=O)NO)[C@H](C)O)cc1 , tested on UniProt:P45452?
Response: 7.02

Prompt: Could you share what pIC50 was measured for CC#CCOc1ccc(S(=O)(=O)CC2(C(=O)NO)CCN(c3c(C)noc3C)CC2)cc1 , tested on UniProt:P45452?
Response: 5.64

Prompt: Could you share what pIC50 was measured for COCCC1(Oc2ccc(Oc3ccc(-c4nc(-c5ccc(C#N)cc5)co4)cc3)cc2)C(=O)NC(=O)NC1=O , tested on UniProt:P45452?
Response: 9.44
